# system: UniProt P50406
# Sequence (P50406 whole entry): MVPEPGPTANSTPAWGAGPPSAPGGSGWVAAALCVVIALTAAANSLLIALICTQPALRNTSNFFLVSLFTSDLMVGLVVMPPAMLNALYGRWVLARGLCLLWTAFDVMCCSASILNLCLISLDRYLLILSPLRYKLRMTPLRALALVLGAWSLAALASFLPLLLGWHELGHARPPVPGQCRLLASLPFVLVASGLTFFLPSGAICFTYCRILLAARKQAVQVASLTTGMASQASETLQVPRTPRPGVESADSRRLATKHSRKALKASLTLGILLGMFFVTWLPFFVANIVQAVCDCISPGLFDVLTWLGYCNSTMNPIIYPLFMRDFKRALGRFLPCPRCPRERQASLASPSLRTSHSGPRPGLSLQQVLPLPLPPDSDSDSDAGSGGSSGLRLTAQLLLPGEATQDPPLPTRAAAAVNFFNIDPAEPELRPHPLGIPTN
Labelling field: enter T if recorded Ki is less than 5 nM. Enter F if it equals or exceeds that cut-off.

compound=Nc1ccc(S(=O)(=O)Nc2cc(Br)cc3[nH]ccc23)cc1 group_label=F
compound="O=S(=O)(c1cccc2ccccc12)n1ccc2ccc(N3CCN4CCCC4C3)cc21 (stereo unspecified)" group_label=T
compound=Cc1ccc(S(=O)(=O)n2cc3c4c(cccc42)[C@H](O)[C@@H](N)C3)cc1 group_label=F
compound=CNc1cc(NS(=O)(=O)c2ccc(N)cc2)nc(N)n1 group_label=F
compound=CN(C)Cc1cn(S(=O)(=O)c2ccc(N)cc2)c2ccccc12 group_label=F
compound=COc1ccc2c(c1)c(CCN(C)C)cn2S(=O)(=O)c1ccccc1 group_label=T
compound=CNc1cc(NC)cc(NS(=O)(=O)c2ccc(N)cc2)c1 group_label=F
compound=COc1ccc2c(c1)c(CCN(C)C)cn2S(=O)(=O)c1ccc(N)cc1 group_label=T
compound="O=C(CCCN1CCC2(CC1)C(=O)NCN2c1ccccc1)c1ccc(F)cc1 [SPIPERONE]" group_label=F
compound=CN(C)CCc1cn(S(=O)(=O)c2ccc(N)cc2)c2ccccc12 group_label=T
